# PROTOCOL_TEXT: prion protein 5' UTR mRNA inhibitors – cell-based, plate reader, cherry-picked samples, dose response (AID 504539)
# CONDITION_LABEL: Cell-based prion protein 5' UTR reporter, plate reader; at 5 µM (top of the series)
ATTRIBUTE_MEASURED: activity change, negative = inhibition (%)
Dear colleague, please return just the value in %, with no unit written.

Requested read-out: activity change, negative = inhibition. Entry: `CCc1ccc(/C=C2\SC(=S)N(CCCC(=O)Nc3ccccn3)C2=O)cc1`
-23.5

Entry under review: O=C(NN1C(=O)C2C3C=CC(C4CC34)C2C1=O)c1ccc(Br)cc1 (stereo not drawn) . Reported activity change, negative = inhibition?
108

Field request: activity change, negative = inhibition | item: `CCOc1ccc(C2=Nn3c(nnc3-c3ccccc3OC)SC2)cc1`
-38.1

Would you kindly share the measured activity change, negative = inhibition for `O=C(NNC(=O)c1cccs1)c1ccco1` ?
6.33

Tell me the measured activity change, negative = inhibition of N#Cc1cn(C2OC(CO)C(O)C2O)c2ncnc(N)c12 (stereo not drawn) , please.
-30.1

Using the record for `Cc1ccc(S(=O)(=O)Nc2nc3ccccc3s2)cc1[N+](=O)[O-]` , report its activity change, negative = inhibition.
25.2

Field request: activity change, negative = inhibition | item: `COc1ccc(Nc2nc(-c3c(C)nc4ncccn34)cs2)cc1`
-31.6

Quick one: activity change, negative = inhibition for `Cn1nnc2cc(C(=O)NC3CCCCC3)ccc21` ?
46.3
